# experimental.details: ATG_XTT_Cytotoxicity: Cytotoxicity Assessment in the Attagene TRANS-FACTORIAL HepG2 Assay (AID 2283584)
Results filed as inconclusive are left out. The source made the active and inactive calls. Rule for the calls: active = hit-call score of the fitted dose curve at least 0.9, where 1 is the maximum; inconclusive = response in the unintended direction; inactive = score below 0.9.
Outcome (select one): 1 (active), -1 (inactive)

O=C1CCCCCN1SSN1CCCCCC1=O; -1

Input line: What did the test return for C=CC(=O)OCCOC1C2CCC1C1CC=CC12 (configuration not stated) ?
Output line: -1

Input line: What did the test return for "O=C(Oc1ccccc1)c1ccc2ccccc2c1O" ?
Output line: -1

Input line: What did the test return for "CCc1nccnc1C" ?
Output line: -1

Input line: What did the test return for "Nc1nc2ccccc2[nH]1" ?
Output line: -1

Input line: What did the test return for "C=C[C@](C)(O)CC[C@@H]1[C@@]2(C)CCCC(C)(C)[C@@H]2CC[C@@]1(C)O" ?
Output line: 1

Input line: What did the test return for "N#[N+]c1ccc2c(S(=O)(=O)[O-])cccc2c1O" ?
Output line: -1
